- Test system: Plasmodium falciparum
- METHOD_DESCRIPTION: Antiplasmodial activity […] against chloroquine-resistant Plasmodium falciparum FcB1 by [3H]hypoxanthine uptake
- Assay type: functional, organism-based
- DETAILS: FcB1/Columbia
Quick rule for you: IC50 under 3 µg/mL gets Condition met, anything else gets Condition not met.

{"COMPOUND": "COc1c(O)cc2oc3cc(O)cc(O)c3c(=O)c2c1C/C=C(\\C)CCC=C(C)C [RUBRAXANTHONE]", "CAT": "Condition not met"}
{"COMPOUND": "CC(C)=CCc1c(O)c(CC=C(C)C)c2oc3c(O)ccc(O)c3c(=O)c2c1O [GARTANIN]", "CAT": "Condition not met"}
{"COMPOUND": "COc1c(O)cc2oc3cc(O)cc(O)c3c(=O)c2c1CC=C(C)CCCC(C)(C)O [BUTYRAXANTHONE D]", "CAT": "Condition not met"}
{"COMPOUND": "CC(C)=CCc1c(O)cc2oc3c(CC=C(C)C)c(O)c(O)c(CC=C(C)C)c3c(=O)c2c1O [GARCINONE E]", "CAT": "Condition met"}
{"COMPOUND": "COc1c(O)cc2oc3cc(O)c(CC=C(C)C)c(O)c3c(=O)c2c1CC=C(C)C [MANGOSTIN]", "CAT": "Condition met"}
{"COMPOUND": "CC(C)=CCc1c(O)c(O)c(CC=C(C)C)c2c(=O)c3c(O)c4c(cc3oc12)OC(C)(C)C=C4 [BUTYRAXANTHONE B]", "CAT": "Condition met"}
{"COMPOUND": "CC(C)=CCc1c(O)cc2oc3c(CC=C(C)C)c(O)c4c(c3c(=O)c2c1O)C=CC(C)(C)O4 [TOVOPHYLLINE A]", "CAT": "Condition met"}
